# Tested on: P. mirabilis
# protocol: Preventive effect against the systemic infection
# Assay type: in vivo
# condition.summary: Proteus mirabilis, sc, 168 h, Subcutaneous Injection, NMRI mice, survival on day 7, read-out: ED₅₀
quantity: ED50 (mg/kg)

INSERT INTO assay_data (molecule, experimental_system, quantity, recorded_value) VALUES
  ('O=C(O)c1cn(C2CC2)c2cc(N3CCNCC3)c(F)cc2c1=O [Ciprofloxacin, ciprofloxacin, reference compound]', 'P. mirabilis', 'ED50', 0.16),
  ('NC1CC12CCN(c1c(F)cc3c(=O)c(C(=O)O)cn(C4CC4)c3c1Cl)C2 (stereo not shown)', 'P. mirabilis', 'ED50', 0.63),
  ('NC1CC12CCN(c1c(F)cc3c(=O)c(C(=O)O)cn(C4CC4)c3c1F)C2 (stereo not shown)', 'P. mirabilis', 'ED50', 1.36),
  ('CC1COc2c(N3CCN(C)CC3)c(F)cc3c(=O)c(C(=O)O)cn1c23 (stereo not shown) [Ofloxacin, ofloxacin, reference compound]', 'P. mirabilis', 'ED50', 0.33);

----------
# Tested on: Pseudomonas aeruginosa 1771 M
# protocol: In vitro anti-bacterial activity test (MIC, two-fold dilution method) against the standard strains
# Assay type: cell-based
# condition.summary: Table 1 strain 15: Pseudomonas aeruginosa 1771 M
MIC listing for selected molecules.
quantity: MIC (µg/mL)

INSERT INTO results (molecule, recorded_value) VALUES
  ('CNC1CC12CCN(c1c(F)cc3c(=O)c(C(=O)O)cn(C4CC4)c3c1F)C2 (centres unmarked)', 0.391),
  ('CNC1CC12CCN(c1cc3c(cc1F)c(=O)c(C(=O)O)cn3C1CC1)C2 (centres unmarked)', 0.781),
  ('CNC1CC12CCN(c1c(F)cc3c(=O)c(C(=O)O)cn(C4CC4)c3c1Cl)C2 (centres unmarked)', 0.781),
  ('C[C@H]1COc2c(N3CCC4(CC4C(=O)O)C3)c(F)cc3c(=O)c(C(=O)O)cn1c23 (some centres unmarked)', 1.56),
  ('NCC1CC12CCN(c1c(F)cc3c(=O)c(C(=O)O)cn(C4CC4)c3c1F)C2 (centres unmarked)', 0.391),
  ('CNC1CC12CCN(c1c(F)cc3c(=O)c(C(=O)O)cn4c3c1OC[C@@H]4C)C2 (some centres unmarked)', 0.781),
  ('COc1c(N2CCC3(CC3N)C2)c(F)cc2c(=O)c(C(=O)O)cn(C3CC3)c12 (centres unmarked)', 0.391),
  ('CC(O)C(=O)O.NC1CC12CCN(c1c(F)cc3c(=O)c(C(=O)O)cn(C4CC4)c3c1Cl)C2 (centres unmarked)', 0.195),
  ('NC1CC12CCN(c1c(F)cc3c(=O)c(C(=O)O)cn(C4CC4)c3c1Cl)C2 (centres unmarked)', 0.195),
  ('NC1CC12CCN(c1nc3c(cc1F)c(=O)c(C(=O)O)cn3C1CC1)C2 (centres unmarked)', 0.195),
  ('C[C@H]1COc2c(N3CCC4(CC4N)C3)c(F)cc3c(=O)c(C(=O)O)cn1c23 (some centres unmarked)', 0.391);

----------
# Test system: Pseudomonas aeruginosa 9027
# protocol: In vitro anti-bacterial activity test (MIC, two-fold dilution method) against the standard strains
# Format: cell-based
# condition.summary: Table 1 strain 12: Pseudomonas aeruginosa 9027
MIC listing for selected compounds.
quantity: MIC (µg/mL)

INSERT INTO assay_data (compound, experimental_system, recorded_value) VALUES
  ('CNC1CC12CCN(c1c(F)cc3c(=O)c(C(=O)O)cn4c3c1OC[C@@H]4C)C2 (some centres unmarked)', 'Pseudomonas aeruginosa 9027', 1.56),
  ('CNC1CC12CCN(c1c(F)cc3c(=O)c(C(=O)O)cn(C4CC4)c3c1Cl)C2 (centres unmarked)', 'Pseudomonas aeruginosa 9027', 3.12),
  ('COc1c(N2CCC3(CC3N)C2)c(F)cc2c(=O)c(C(=O)O)cn(C3CC3)c12 (centres unmarked)', 'Pseudomonas aeruginosa 9027', 1.56),
  ('CC1COc2c(N3CCN(C)CC3)c(F)cc3c(=O)c(C(=O)O)cn1c23 (centres unmarked) [Ofloxacin, ofloxacin, reference compound]', 'Pseudomonas aeruginosa 9027', 1.56),
  ('CC(O)C(=O)O.NC1CC12CCN(c1c(F)cc3c(=O)c(C(=O)O)cn(C4CC4)c3c1Cl)C2 (centres unmarked)', 'Pseudomonas aeruginosa 9027', 0.781),
  ('CNC1CC12CCN(c1c(F)c(N)c3c(=O)c(C(=O)O)cn(C4CC4)c3c1F)C2 (centres unmarked)', 'Pseudomonas aeruginosa 9027', 3.12),
  ('NC1CC12CCN(c1nc3c(cc1F)c(=O)c(C(=O)O)cn3C1CC1)C2 (centres unmarked)', 'Pseudomonas aeruginosa 9027', 1.56),
  ('NC1CC12CCCN(c1c(F)cc3c(=O)c(C(=O)O)cn(C4CC4)c3c1F)C2 (centres unmarked)', 'Pseudomonas aeruginosa 9027', 6.25);

----------
# Test system: Staphylococcus aureus 725 E
# protocol: In vitro anti-bacterial activity test (MIC, two-fold dilution method), Table 2 strains
# Type: cell-based
# condition.summary: Table 2 strain 19: Staphylococcus aureus 725 E; read-out: MIC
MIC listing for selected compounds.
quantity: MIC (µg/mL)

INSERT INTO measurements (compound, measure_unit, recorded_value) VALUES
  ('CNC1CC12CCN(c1c(F)cc3c(=O)c(C(=O)O)cn(C4CC4)c3c1F)C2 (stereo not shown)', 'µg/mL', 0.098),
  ('Nc1c(F)c(N2CCC3(CC3N)C2)c(F)c2c1c(=O)c(C(=O)O)cn2C1CC1 (stereo not shown)', 'µg/mL', 0.025),
  ('CNC1CC12CCN(c1c(F)cc3c(=O)c(C(=O)O)cn(C4CC4)c3c1Cl)C2 (stereo not shown)', 'µg/mL', 0.098),
  ('CC1COc2c(N3CCN(C)CC3)c(F)cc3c(=O)c(C(=O)O)cn1c23 (stereo not shown) [Ofloxacin, ofloxacin, reference compound]', 'µg/mL', 0.391);

----------
log10(MIC) listing for selected compounds.
# Tested on: Staphylococcus aureus 285
# protocol: In vitro anti-bacterial activity test (MIC, two-fold dilution method) against the standard strains
# Type: cell-based
# condition.summary: Table 1 strain 5: Staphylococcus aureus 285; read-out: MIC
quantity: log10(MIC) (log10 of the value in µg/mL)

INSERT INTO measurements (compound, recorded_value) VALUES
  ('CC(O)C(=O)O.NC1CC12CCN(c1c(F)cc3c(=O)c(C(=O)O)cn(C4CC4)c3c1Cl)C2 (stereo not drawn)', -1.60),
  ('NC1CC12CCN(c1c(F)cc3c(=O)c(C(=O)O)cn(C4CC4)c3c1Cl)C2 (stereo not drawn)', -2.15),
  ('NC1CC12CCN(c1cc3c(cc1F)c(=O)c(C(=O)O)cn3C1CC1)C2 (stereo not drawn)', -1.01),
  ('Nc1c(F)c(N2CCC3(CC3N)C2)c(F)c2c1c(=O)c(C(=O)O)cn2C1CC1 (stereo not drawn)', -1.60),
  ('CC(O)C(=O)O.NC1CC12CCN(c1c(F)cc3c(=O)c(C(=O)O)cn(C4CC4)c3c1F)C2 (stereo not drawn)', -1.60),
  ('NCC1CC12CCN(c1c(F)cc3c(=O)c(C(=O)O)cn(C4CC4)c3c1F)C2 (stereo not drawn)', -0.71),
  ('NC1CC12CCN(c1nc3c(cc1F)c(=O)c(C(=O)O)cn3C1CC1)C2 (stereo not drawn)', -1.31),
  ('CNC1CC12CCN(c1c(F)cc3c(=O)c(C(=O)O)cn(C4CC4)c3c1Cl)C2 (stereo not drawn)', -1.31),
  ('CNC1CC12CCN(c1cc3c(cc1F)c(=O)c(C(=O)O)cn3C1CC1)C2 (stereo not drawn)', -1.01),
  ('CNC1CC12CCN(c1c(F)cc3c(=O)c(C(=O)O)cn(C4CC4)c3c1F)C2 (stereo not drawn)', -1.31),
  ('CNC1CC12CCN(c1c(F)cc3c(=O)c(C(=O)O)cn4c3c1OC[C@@H]4C)C2 (stereo partly drawn)', -1.31),
  ('CNC1CC12CCN(c1c(F)c(N)c3c(=O)c(C(=O)O)cn(C4CC4)c3c1F)C2 (stereo not drawn)', -1.60),
  ('C[C@H]1COc2c(N3CCC4(CC4N)C3)c(F)cc3c(=O)c(C(=O)O)cn1c23 (stereo partly drawn)', -1.01),
  ('NC1CC12CCN(c1c(F)cc3c(=O)c(C(=O)O)cn(C4CC4)c3c1F)C2 (stereo not drawn)', -1.60),
  ('COc1c(N2CCC3(CC3N)C2)c(F)cc2c(=O)c(C(=O)O)cn(C3CC3)c12 (stereo not drawn)', -1.31),
  ('CC1COc2c(N3CCN(C)CC3)c(F)cc3c(=O)c(C(=O)O)cn1c23 (stereo not drawn) [Ofloxacin, ofloxacin, reference compound]', -0.41),
  ('C[C@H]1COc2c(N3CCC4(CC4C(=O)O)C3)c(F)cc3c(=O)c(C(=O)O)cn1c23 (stereo partly drawn)', -1.01),
  ('NC1CC12CCCN(c1c(F)cc3c(=O)c(C(=O)O)cn(C4CC4)c3c1F)C2 (stereo not drawn)', -1.01);
